Assay: decrease of insulin promoter-GFP reporter – imaging, high-content screening, mouse beta cells (AID 1628)
Details: MIN6 insulin promoter GFP reporter, at 5 µM, stronger effect = lower value
Hit rate of the full screen: of about 190,000 compounds, about 930 (0.49%) were called active. The list shows a part of the results. Measured potencies and affinities stand elsewhere.
propertyMeasured: z-score
Answer with a bare number; do not write a unit.

Below: 3 molecules and their reported z-score.
# molecule, z-score
data = [
    ("CSc1c(C#N)c(N)nc2sc(C(=O)c3ccc(Cl)c(Cl)c3)c(N)c12", 5.56),
    ("CS(=O)(=O)N(CCc1ccccc1)CC(=O)N1CCN(Cc2ccccc2)CC1", 0.33),
    ("CCCN1C(=O)/C(=C/c2c(NCCCOC(C)C)nc3c(C)cccn3c2=O)SC1=S", 11.2),
]

INPUT: Recorded z-score for CCN(CC)CC(O)COc1ccc2c(c1)c(C(C)=O)c(C)n2-c1ccccc1 (stereo not drawn) , please?
OUTPUT: -3.02

INPUT: Recorded z-score for COc1ccc(CN2C(=O)/C(=C/c3ccc(-c4ccc(Cl)c(C(=O)O)c4)o3)SC2=S)cc1 , please?
OUTPUT: 5.56

INPUT: Recorded z-score for O=C(O)CCCCCN1C(=O)/C(=C\c2ccc(-c3ccc(Cl)cc3)o2)SC1=S , please?
OUTPUT: 4.23

INPUT: Recorded z-score for COc1ccc(-c2cc(C(F)F)n3ncc(C(=O)NCC4CCCO4)c3n2)cc1 (stereo not drawn) , please?
OUTPUT: -5.37

INPUT: Recorded z-score for CC1CCCC(C)N1C(=O)CSc1nnc(-c2cccs2)o1 (stereo not drawn) , please?
OUTPUT: 3.46
